target: Human immunodeficiency virus type 1 integrase (Human immunodeficiency virus 1)
recorded-endpoint: IC50 (nM)

a. O=C(O)c1c[nH]c2ccc(Cc3c(Cl)cccc3Cl)cc2c1=O
b. O=C(O)c1cn(CCO)c2ccc(Cc3cccc(Cl)c3Cl)c(F)c2c1=O
c. C[C@H](CO)n1cc(C(=O)O)c(=O)c2cc(Cc3cccc(Cl)c3F)ccc21
d. Cc1ccccc1Cc1ccc2[nH]cc(C(=O)O)c(=O)c2c1
e. O=C(O)c1c[nH]c2ccc(Cc3ccccc3C(F)(F)F)cc2c1=O
Consider the compounds listed above. Rank them by IC50 in ascending numerical order. Answer format: list of labels, ordered as asked. c, b, a, e, d
(c: 38.3 nM, b: 84 nM, a: 370 nM, e: 720 nM, d: 1080 nM)

----------
target: Human immunodeficiency virus type 1 integrase (Human immunodeficiency virus 1, UniProt Q7ZJM1)
Sequence (Q7ZJM1 whole entry): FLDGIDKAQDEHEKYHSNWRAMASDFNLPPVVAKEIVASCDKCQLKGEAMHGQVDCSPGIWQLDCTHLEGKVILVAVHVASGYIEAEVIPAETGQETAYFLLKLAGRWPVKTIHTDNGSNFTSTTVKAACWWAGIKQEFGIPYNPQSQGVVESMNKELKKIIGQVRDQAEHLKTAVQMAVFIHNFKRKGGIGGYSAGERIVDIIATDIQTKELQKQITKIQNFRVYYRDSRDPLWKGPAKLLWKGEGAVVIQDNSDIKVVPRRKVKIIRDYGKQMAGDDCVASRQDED
recorded-endpoint: IC50 (nM)

Study these solved cases before continuing.
1. CCCCn1cc(C(=O)O)c(=O)c2cc(Cc3cccc(Cl)c3Cl)ccc21    65
2. N#Cc1cc2c(cc1Cc1cccc(Cl)c1Cl)c(=O)c(C(=O)O)cn2CCO    50
3. O=C(O)c1cn(CCO)c2cc(Cl)c(Cc3cccc(Cl)c3Cl)cc2c1=O    43
4. O=C(O)c1cn(CCO)c2ccc(Cc3cccc(F)c3Cl)cc2c1=O    44
5. COc1cc2c(cc1Cc1cccc(Cl)c1F)c(=O)c(C(=O)O)cn2[C@H](CO)C(C)(C)C    5.8

1. O=C(O)c1cn([C@H](CO)c2ccccc2)c2ccc(Cc3cccc(Cl)c3F)cc2c1=O
2. O=C(O)c1c[nH]c2ccc(Cc3ccccc3Cl)cc2c1=O
3. CC(C)n1cc(C(=O)O)c(=O)c2cc(Cc3cccc(Cl)c3Cl)ccc21
4. NCCn1cc(C(=O)O)c(=O)c2cc(Cc3cccc(Cl)c3Cl)ccc21
5. O=C(O)c1c[nH]c2ccc(Cc3cccc(Cl)c3)cc2c1=O
Falling order of IC50, please. Answer format: list of labels, ordered as asked. 5, 2, 4, 3, 1

A. COc1cc2c(cc1Cc1cccc(Cl)c1Cl)c(=O)c(C(=O)O)cn2CCO
B. O=C(O)c1cn(CCO)c2ccc(Cc3cccc(Cl)c3Cl)cc2c1=O
Higher IC50 between A and B ? Label of pick, please. B

----------
experiment: Cytotoxicity against human MT4 cells after 5 days by MTT assay; format: cell-based
recorded-endpoint: CC50 at 120 h (µM)
Give the number; µM is assumed, so skip it.

Study these solved cases before continuing.
1. COc1cc2c(cc1Cc1cccc(Cl)c1F)c(=O)c(C(=O)O)cn2[C@@H](CO)C(C)C    4.2
2. CC[C@@H](CO)n1cc(C(=O)O)c(=O)c2cc(Cc3cccc(Cl)c3F)ccc21    13
3. COc1ccccc1Cc1ccc2[nH]cc(C(=O)O)c(=O)c2c1    16.6
4. COc1cc2c(cc1Cc1cccc(Cl)c1F)c(=O)c(C(=O)O)cn2CCO    5.3
5. COc1cc2c(cc1Cc1cccc(Cl)c1F)c(=O)c(C(=O)O)cn2[C@H](CO)C1CCCCC1    3
6. CCC[C@@H](CO)n1cc(C(=O)O)c(=O)c2cc(Cc3cccc(Cl)c3F)ccc21    12.5

For "COc1cc2c(cc1Cc1cccc(Cl)c1Cl)c(=O)c(C(=O)O)cn2CCO" , what is its reported CC50 at 120 h? 4.2

For "O=C(O)c1c[nH]c2ccc(Cc3c(Cl)cccc3Cl)cc2c1=O" , what is its reported CC50 at 120 h? 14.9

For "O=C(O)c1cn(CCO)c2cc(C(F)(F)F)c(Cc3cccc(Cl)c3Cl)cc2c1=O" , what is its reported CC50 at 120 h? 10

Taken from ChEMBL document CHEMBL1158495.
